Data provenance: PubChem BioAssay AID1159580

PROTOCOL_TEXT: chemical genetic growth profiling, strain panel (AID 1159580);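 also: tested at 20 µM; growth read once vehicle control cultures reached saturation at 30 °C; 1 = growth at the plate median or of vehicle wells; lower values mean less growth of the strain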
EXPERIMENTAL_SETUP: S. cerevisiae deletion strains, growth OD, locus YNL207W, strain RIO2, stronger effect = lower value
Screen size: about 5,500 compounds; about 2,000 (36%) were called active. Not shown: some 18% with an inconclusive outcome. The list shows a part of the results.
Documented normalized growth across a set of molecules
QUANTITY_MEASURED: normalized growth

* Cc1nnsc1C(=O)NNc1ccc(F)cc1F | 0.961
* CC(=O)CSc1nnc(-c2ccc(C(C)(C)C)cc2)n1-c1ccc(Cl)cc1 | 0.988
* O=C(NNc1ccccc1F)c1ccno1 | 0.984
* Cc1nnsc1C(=O)Nc1cc(C(F)(F)F)cc(C(F)(F)F)c1 | 0.954
* O=S(=O)(Nc1cccc2nsnc12)c1cc(Cl)sc1Cl | 0.957
* CSC1=NNC(c2nn(C)cc2Cl)S1 (stereo unspecified) | 0.448
* COc1ccc(NNC(=O)c2sc3ccccc3c2Cl)cc1 | 0.948
* COc1ccc(/C=C2\CSc3ccc(F)cc3C2=O)cc1 | 0.969
* Cc1cc(C(=O)Nc2ccc(Cl)cc2)nn1C(C)(C)C | 0.998
* O=S(=O)(Nc1cccc(CCc2ccccn2)c1)c1cc(Cl)c(Cl)cc1Cl | 0.985
* Cc1cc(NNC(=O)c2ccccc2Cl)nc2c1c(C)nn2C | 0.985
* COc1ccc(CN2CSC(=S)N(Cc3ccc(OC)cc3)C2)cc1 | 0.964
* Cc1ccc(OCC2SCCN2C(=O)c2ccc(C(F)(F)F)cc2)c([N+](=O)[O-])c1 (stereo unspecified) | 1.02
* Cc1ccc(/C=C2\CSc3ccc(F)cc3C2=O)cc1 | 0.945
* Nc1ccccc1SCc1c(Cl)cccc1Cl | 0.948
* Cc1nnsc1C(=O)NNc1c(Cl)cccc1Cl | 0.988
* COc1cc2c(cc1OC)C(C)N(C(=O)c1sc3ccccc3c1Cl)CC2 (stereo unspecified) | 0.978
* O=C(Oc1ccc(C(F)(F)F)cc1[N+](=O)[O-])c1cccc(Cl)c1 | 0.571
* N#Cc1ccc(S(=O)(=O)Nc2ccccc2Oc2ccc(Cl)cc2Cl)cc1 | 0.979
* COc1cc(NC(=S)N(C)C)c(OC)cc1Cl | 0.987
* Cc1nn(Cc2cccc(C(=O)Nc3ccc(Cl)cc3)c2)c(C)c1Br | 0.978
* Cc1ccc2nc(-c3ccc(Cl)cc3)cn2c1 | 0.97
* CCOC(=O)CSC(=S)NCc1ccc(C)cc1 | 0.953
* Cc1cc(Cl)ccc1NNC(=O)c1ccno1 | 0.966
* O=C1C(=O)N(CN2CCc3c([nH]c4ccccc34)C2C(F)(F)F)c2ccc(F)cc21 (stereo unspecified) | 0.983
* Cc1cc(C(=O)NNc2ccc(F)cc2F)no1 | 0.962
* O=c1c(Sc2ccc(Cl)cc2)c(Sc2ccc(Cl)cc2)c1=O | 0.973
* O=C(CSc1nnnn1-c1ccccc1)c1ccccc1 | 0.93
* Cc1c(Cc2ccc(F)cc2)c(=O)oc2cc(O)ccc12 | 0.97
* Cc1ccc(Sc2c(Sc3ccc(C)cc3)c(=O)c2=O)cc1 | 0.973
* O=C(N/C=C/c1ccsc1)Nc1cc(C(F)(F)F)cc(C(F)(F)F)c1 | 0.976
